test system: COLO 205 colon; test: NCI-60 one-dose screen, 48 h (100 = growth as untreated, 0 = no growth, -100 = all killed); conditions: 10 µM
About 83,000 compounds went through this panel and 20% of them were active in at least one assay; those are over-represented in the sample as a whole.
Label met for high-side growth (at or above 60%) and not met for low-side growth (below it).

QUERY: Kindly determine if growth recorded for `COc1ccc(Nc2ncnc3c2c(SC)nn3-c2ccccc2)cc1` is above or exactly 60%.
RESULT: met

QUERY: growth >= 60% for `COc1ccc2c(c1)C(=O)c1c-2c(OCCN(C)C)nc2ccccc12` ?
RESULT: not met

QUERY: Has `CC(=O)CSC(C)=O` a recorded growth greater than or equal to 60%?
RESULT: met

QUERY: Check if growth >= 60% (inclusive). Item: `C[C@@H]1C=C2C(=O)O[C@@H]3CC[C@H](C1)[C@]23O`
RESULT: met

QUERY: Reported growth reaches at least 60% for `CS(=O)(=O)Nc1cccc(-c2cc(-c3ccccc3Cl)c(C#N)c(N)n2)c1` ?
RESULT: not met

QUERY: Could you tell me if the measured growth of CCN(CC)CCC(CNc1c(C)cnc2cc(Cl)ccc12)c1ccc(Cl)c(Cl)c1 (configuration not stated) reaches 60% or more?
RESULT: not met

QUERY: Dear colleague, could you confirm whether `CC(C)(C)c1ccc(N2CSC(=S)N(c3ccc(C(C)(C)C)cc3)C2)cc1` has growth at or above 60%?
RESULT: met

QUERY: API: above_or_equal(metric=growth, cutoff=60%) for item `O=C(Nc1cccc(Cl)c1)Nc1nccs1`
RESULT: met

QUERY: I'd appreciate it if you could say whether `COc1ccc(Cl)cc1C(=O)Nc1nc2ccc(Cl)cc2s1` has growth at least equal to 60%.
RESULT: met

QUERY: Hi, just wondering whether `N#Cc1ncc(-c2cc(F)c(F)c(F)c2)c(NC2CCCCCC2)n1` shows growth of 60% or higher.
RESULT: met

QUERY: Decide: growth of `CCCCCCCCCCCCCC[n+]1ccc(C(N)=O)cc1` >= 60%?
RESULT: not met

QUERY: Check the entry `Cn1c([N+](=O)[O-])cnc1/C=C1\Oc2cc(Cl)ccc2C1=O` : does growth equal or exceed 60%?
RESULT: not met

QUERY: Quick check: does `COc1cc(-c2nc(-c3nnc(-c4ccccc4Cl)o3)c3ccccn23)cc(OC)c1OC` have growth greater than or equal to 60%?
RESULT: met

QUERY: Determine whether this molecule has growth no lower than 60%: `O=C(Nc1cccc(-n2cc(-c3ccncc3)c(-c3ccc(O)c(Cl)c3)n2)c1)Nc1ccc(Cl)c(Cl)c1`
RESULT: met

QUERY: API: above_or_equal(metric=growth, cutoff=60%) for item O=C1OCC2=C1C(c1cccc(Br)c1)c1cc3c(cc1N2CCO)CCC3 (configuration not stated)
RESULT: not met

QUERY: For this molecule, is measured growth 60% or higher? `CCOC(=O)N1C/C(=C/c2ccc(OC)cc2)C(=O)/C(=C/c2ccc(OC)cc2)C1`
RESULT: not met

QUERY: Is the recorded value of growth equal to or greater than 60% for this molecule? `O=C1/C(=C\c2ccccc2)CN(C(=O)c2ccccc2)C/C1=C\c1ccccc1`
RESULT: not met

QUERY: For this molecule, is measured growth 60% or higher? CC1CN(Cc2ccccc2)C(=O)NC1=O (configuration not stated)
RESULT: met

QUERY: Record `COc1ccc(-c2nc3ncccn3c2-c2nnc(-c3ccsc3C)o2)cc1` ; criterion: growth no lower than 60%. Met?
RESULT: met

QUERY: Decide: is the reported value of growth for COc1cccc(NC(=O)c2sc3nc4c(cc3c2N)C(O)CCC4)c1 (configuration not stated) equal to or greater than 60%?
RESULT: not met

QUERY: Determine whether this molecule has growth no lower than 60%: `COc1ccc2c(c1)O/C(=C\c1ccc([N+](=O)[O-])o1)C2=O`
RESULT: not met

QUERY: Kindly determine if growth recorded for `COc1ccc2c(c1)/C(=C\c1c[nH]c3ccc(OC)cc13)C(=O)N2` is above or exactly 60%.
RESULT: not met

QUERY: Identify whether the reported growth of the following molecule is 60% or greater: `COc1cc(-c2cc(C(=O)N3CCN(C(=O)c4ccccc4NCc4cccs4)CC3)nc3cc(-c4ccccc4)nn23)cc(OC)c1OC`
RESULT: not met

QUERY: Could you please find out whether `c1ccc(CP(Cc2ccccc2)c2ccccc2)cc1` has growth that meets 60% or exceeds it?
RESULT: met

QUERY: Determine whether this molecule has growth no lower than 60%: `O=C(Nc1nc2ccccc2s1)Nc1ccc([N+](=O)[O-])cc1Cl`
RESULT: met

QUERY: hey, is growth for this one >= 60%? `c1ccc(CNc2ncnc3scc(-c4cccs4)c23)nc1`
RESULT: met

QUERY: Does growth meet or surpass 60% for `COc1cc(CNCCCCCCN2C(=O)c3cccc4cccc(c34)C2=O)ccc1O` ?
RESULT: not met

QUERY: // inclusive: growth at least 60%? input: `CCCCCCNC(=O)Oc1ccc(/C(=C(/CC)Cc2ccccc2)c2ccc(OCCN3CCCCC3)cc2)cc1`
RESULT: not met

QUERY: Threshold query (growth >= 60%) on O=C1NC(=O)N(Cc2ccccc2)CC1Br (configuration not stated)
RESULT: met

QUERY: Please tell me: is the molecule `Cc1ccc(NC(=O)Nc2cccnc2)cc1NC(=O)Nc1cccnc1` at or over 60% in terms of growth?
RESULT: met

QUERY: Please tell me: is the molecule `CN1c2ccccc2[C@]2(Cc3ccccc3)Cc3ccccc3N[C@H]12` at or over 60% in terms of growth?
RESULT: met

QUERY: Hi team, for `N=C(N)c1ccc(-c2ccc(-c3cccs3)o2)cc1` , is the recorded growth at or above 60%?
RESULT: not met

QUERY: Please indicate if the recorded growth for `CCN(CC)CCCOCCCNc1cc(OC)cc2cccnc12` meets or exceeds 60%.
RESULT: not met

QUERY: Does the molecule `CN1CCC(CNc2cc(C3(C(=O)Nc4cc(C(=O)Nc5ccc(Cl)c(C(F)(F)F)c5)ccc4F)CC3)ncn2)CC1` have recorded growth that is 60% or more?
RESULT: not met

QUERY: Test whether the molecule `Cc1ccc(S(=O)(=O)Oc2ccc3c4c(c(=O)oc3c2)CCCCC4)cc1` records growth of 60% or higher.
RESULT: not met

QUERY: Answer whether growth of `O=C(Nc1cccc(-n2cc(-c3ccncc3)c(-c3cc(O)cc(Cl)c3)n2)c1)Nc1ccc(Cl)c(C(F)(F)F)c1` is greater than or equal to 60%.
RESULT: met

QUERY: hey, is growth for this one >= 60%? `CC/C(=C(/c1ccc(OCCN(C)C)cc1)c1ccc(OC(=O)CCCCC(=O)c2c(C)[nH]c(/C=C3\N=C(c4ccc[nH]4)C=C3OC)c2C)cc1)c1ccccc1`
RESULT: met

QUERY: // inclusive: growth at least 60%? input: `N#CCCN(NC(=O)OCc1ccccc1)C(=O)OCc1ccccc1`
RESULT: met

QUERY: Does growth meet or surpass 60% for COc1cc2c(cc1OC)N(CCO)C1=C(C(=O)OC1)C2c1ccc(Cl)c(Cl)c1 (configuration not stated) ?
RESULT: met

QUERY: State whether the measured growth reaches 60%, counting equality as reaching it, for `COC(=O)C1=NNC(=S)N(c2cc(C)[nH]n2)C(=O)C1`
RESULT: met

QUERY: Form field: growth at least 60%? Entry: `COc1cc2cc3c(nc2cc1OC)CCN3Cc1ccc(NC(=O)Nc2cc(C(F)(F)F)cc(C(F)(F)F)c2)cc1`
RESULT: met

###

system: RPMI-8226 leukemia; assay: NCI-60 one-dose screen, 48 h; settings: 10 µM
Compounds without any hit were thinned out: in the full panel of roughly 83,000, 20% have a hit. The source made the active and inactive calls. How the source made its calls: active means growth percent below 10; inactive means the rest.
Answer with one of the outcomes given here: active, inactive

QUERY: Would you mind telling me which call this test gave `O=S(=O)(NCCCNc1nccc(-c2c(-c3ccc(F)cc3)nc3sccn23)n1)c1ccc(F)cc1` ?
RESULT: inactive

QUERY: Hi team, can someone confirm the assay call for Clc1ccc(/C=C2\CCCC3=C2N=C2SC=NN2C3c2ccc(Cl)cc2)cc1 (centres undefined) ?
RESULT: active

QUERY: Please state the recorded outcome for this compound: `Nc1ccccc1NC(=O)CCCCC(=O)Nc1ccc2c(c1)/C(=C/c1ccc[nH]1)C(=O)N2`
RESULT: inactive

QUERY: Dear all, I need the recorded test outcome for `N=C(N)c1ccc(-c2ccc(-c3ccccc3)o2)nc1` , thank you.
RESULT: inactive

QUERY: For `CN(Cc1ccccc1)Cc1ccc([N+](=O)[O-])cc1I` , which call appears in the assay record?
RESULT: inactive

QUERY: // return assay outcome for `O=C(Nc1ccncc1)C(=O)c1cn(S(=O)(=O)c2cccc(Cl)c2)c2ccccc12`
RESULT: inactive

QUERY: GET /call?item= `CCC(=O)N1C/C(=C/c2ccc(OC)cc2)C(=O)/C(=C/c2ccc(OC)cc2)C1` returns the recorded outcome of this test.
RESULT: active

QUERY: Query: recorded result category for `COc1cc(OC)cc(-c2cncn2-c2ccc(-c3nc4cc(OC)cc(OC)c4s3)cc2)c1` in this test
RESULT: inactive

QUERY: // return assay outcome for `COc1cc(C(=O)/C=C/c2cc(-c3cc(OC)c(OC)c(OC)c3)n[nH]2)cc(OC)c1OC`
RESULT: active

QUERY: Any idea what this test logged for C=C1c2c(C)nn(-c3ccc(OC)cc3)c2N(C)C23C[C@@H]1C1(C)c4c(C)nn(-c5ccc(OC)cc5)c4N(C)C(C)(C[C@H]12)C3 (some centres undefined) ?
RESULT: active

QUERY: Look up the recorded call for `Cc1cc(N(CCCNc2ccnc3cc(Cl)ccc23)Cc2cccs2)nc(Cl)n1` in this test.
RESULT: active

QUERY: Tell me the assay call for `Cc1cc(N(CCCNc2ccnc3cc(Cl)ccc23)Cc2ccc3c(c2)OCO3)nc(N2CCOCC2)n1` please.
RESULT: active

QUERY: # fetch the recorded call for `Clc1cc2c(c(CSc3nc4ccccc4n4cccc34)c1)OCOC2` here
RESULT: inactive

QUERY: Field: outcome | Entry: O=C1OCC2=C1C(c1cccc(Cl)c1)c1cc3c(cc1N2CCO)OCCO3 (centres undefined)
RESULT: inactive

QUERY: For this compound, state the assay outcome: `O=C(CCCCC(=O)Nc1ccc2c(c1)/C(=C/c1ccc[nH]1)C(=O)N2)NO`
RESULT: inactive

QUERY: Per the records of this test, what outcome belongs to `O=C(C[P+](c1ccccc1)(c1ccccc1)c1ccccc1)C[P+](c1ccccc1)(c1ccccc1)c1ccccc1` ?
RESULT: active

QUERY: GET /call?item= `c1ccc(CP(Cc2ccccc2)c2ccccc2)cc1` returns the recorded outcome of this test.
RESULT: inactive

QUERY: For `COc1ccc(Nc2nc3ccc(NC(=O)NC4CCCCC4)cc3[nH]c2=O)cc1` , which call appears in the assay record?
RESULT: inactive

QUERY: Short answer needed: outcome of this test for `COc1cc(NC(=O)CCSc2nc3ccc(Cl)cc3c(=O)n2Cc2ccccc2)cc(OC)c1OC` ?
RESULT: inactive

QUERY: Any idea what this test logged for `O=C(Nc1cccc(-n2cc(-c3ccncc3)c(-c3cc(O)cc(Cl)c3)n2)c1)c1cc(C(F)(F)F)cc(C(F)(F)F)c1` ?
RESULT: inactive

QUERY: Lab log entry: COc1ccc2c(c1)N(CCO)C1=C(C(=O)OC1)C2c1ccccc1 (centres undefined) — outcome as called in the assay?
RESULT: inactive

QUERY: Any idea what this test logged for O=C1OCC2=C1C(c1cccc(Cl)c1)c1cc3c(cc1N2CCO)OCO3 (centres undefined) ?
RESULT: inactive

QUERY: Hi, do you know how `CC(=O)n1c(-c2ccc(Cl)c(Cl)c2)cn(-c2ccc(Cl)cc2)c1=O` came out in this test?
RESULT: active

QUERY: Recorded call for `Cc1nc2oc3ccccc3c(=O)c2cc1C(=O)NCc1ccccc1` ?
RESULT: inactive

QUERY: Any idea what this test logged for `COc1ccc2c(c1)-c1c(c3cc(OC)ccc3n(CCN(C)C)c1=O)C2=O` ?
RESULT: active

QUERY: Would you mind telling me which call this test gave `Nc1nc(N)c(NC(=O)CNc2ccc(C(=O)O)cc2)c(N)n1` ?
RESULT: inactive

QUERY: // return assay outcome for Nc1ccn(C2CC(O)C(CO)O2)c(=O)n1 (centres undefined)
RESULT: inactive

QUERY: Recorded call for O=C(O)C(SC(C(=O)O)c1ccccc1)c1ccccc1 (centres undefined) ?
RESULT: inactive

QUERY: Hi team, can someone confirm the assay call for `O=C(CCCCCCC(=O)Nc1cccnc1)NO` ?
RESULT: active

QUERY: State the result this test recorded for `O=C(Nc1ccncc1)C(=O)c1cn(S(=O)(=O)c2cccc3ccccc23)c2ccccc12` .
RESULT: inactive

QUERY: Hi, do you know how `COc1ccc(NC(=O)Cc2nc3nc4sc(C)c(C)c4c(=O)n3[nH]2)cc1` came out in this test?
RESULT: inactive

QUERY: Could you kindly confirm the outcome this assay logged for `Nc1c(C(=O)Nc2cccc3ccccc23)sc2nc3c(cc12)C(=O)CCC3` ?
RESULT: inactive

QUERY: Hey, what did the test say about `COc1ccc(N=C2C(=Nc3ccc(OC)cc3)N(c3ccc(N(C)C)cc3)C(=S)N2c2ccc(OC)cc2)cc1` ?
RESULT: active

QUERY: So what was the verdict on `COc1cc(-c2cc(C(=O)N3CCN(C(=O)c4ccccc4NCc4cccs4)CC3)nc3cc(-c4ccccc4)nn23)cc(OC)c1OC` in this test?
RESULT: inactive

QUERY: Tell me the assay call for `COc1ccc(/C(=C2/O[C@@H]([C@H]3COC(C)(C)O3)[C@H]3OC(C)(C)O[C@@H]23)c2cc(OC)c(OC)c(OC)c2)cc1O` please.
RESULT: inactive

QUERY: Dear colleague, could you share the recorded outcome for `COc1ccc(-c2nc3sc(-c4ccc(OC)cc4)c(-c4ccc(OC)cc4)n3c2/C=C/c2ccc(C(C)C)cc2)cc1` when you have a moment?
RESULT: inactive

QUERY: Outcome logged for `COc1ccc(OC)c(/C=C/c2nc(SCc3ccccc3)n(-c3ccc(Cl)cc3)n2)c1` in this assay:
RESULT: inactive

QUERY: Test call for this compound, please: `CCOC(=O)N1C/C(=C/c2ccc(Cl)cc2)C(=O)/C(=C/c2ccc(Cl)cc2)C1`
RESULT: active

QUERY: Identify the outcome logged in this assay for the compound shown: `COc1ccc(-c2csc(NC(=O)CSc3nc(C)c(-c4ccccc4)n3Nc3ccccc3)n2)cc1`
RESULT: inactive
